# system: T1, CD81 (UniProt P60033 1-236, limits assumed)
# T1 construct: whole, on cells; also called CD81 receptor
# T1 sequence (looked up): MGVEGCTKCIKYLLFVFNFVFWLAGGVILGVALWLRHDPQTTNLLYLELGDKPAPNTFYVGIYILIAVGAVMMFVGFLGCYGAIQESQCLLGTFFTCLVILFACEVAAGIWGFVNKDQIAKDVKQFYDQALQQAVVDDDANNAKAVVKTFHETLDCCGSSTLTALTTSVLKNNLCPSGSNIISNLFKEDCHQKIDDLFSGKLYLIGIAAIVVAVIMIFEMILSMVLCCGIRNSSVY
# test: cell ELISA;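 also: antibody binding to HuH7 cells expressing CD81 versus a CD81-negative HuH7 control line, bound antibody detected by secondary reagent, absorbance at 450 nm with 620 nm reference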
Lab note: anything with ELISA data at or over 0.8 counts as fulfilled; the rest go in not fulfilled.

In plain terms: is recorded ELISA data at least 0.8 for CD81K04 HC JA_GG-16-hVH_1_3 / LC JA_GG-09-hVK_4_1 (antibody, V domains shown, human constant region) VH: QVQLVQSGAEVKKPGASVKVSCKASGYTFSSSWMNWVRQAPGQGLEWMGRIYSGDGDAIYNGKFKGRVTITADTSASTAYMELSSLRSEDTAVYYCAREGKTGDLLLRSWGQGTLVTVSS VL: DIVMTQSPDSLAVSLGERATINCKSSKSVSTSIYSYMHWYQQKPGQPPKLLIKYASTRESGVPDRFSGSGSGTDFTLTISSLQAEDVAVYYCEHSREFPFTFGQGTKLEIK ?
fulfilled

In plain terms: is recorded ELISA data at least 0.8 for CD81K04 HC GG-04-hVH_1_69 / LC JA_GG-10-hVK_4_1 (antibody, V domains shown, human constant region) VH: QVQLVQSGAEVKKPGSSVKVSCKASGYTFSSSWMNWVRQAPGQGLEWMGRIYSGDGDAIYNQKFQGRATITADESTSTAYMELSSLRSEDTAVYYCAREGKTGDLLLRSWGQGTLVTVSS VL: DIVMTQSPDSLAVSLGERATINCRASKSVSTSIYSYMHWYQQKPGQPPKLLIKYASYLESGVPDRFSGSGSGTDFTLTISSLQAEDVAVYYCEHSREFPFTFGQGTKLEIK ?
not fulfilled

In plain terms: is recorded ELISA data at least 0.8 for CD81K04 HC GG-04-hVH_1_69 / LC GG-03-hVK_4_1 (antibody, V domains shown, human constant region) VH: QVQLVQSGAEVKKPGSSVKVSCKASGYTFSSSWMNWVRQAPGQGLEWMGRIYSGDGDAIYNQKFQGRATITADESTSTAYMELSSLRSEDTAVYYCAREGKTGDLLLRSWGQGTLVTVSS VL: DIVMTQSPDSLAVSLGERATINCKSSKSVSTSIYSYLAWYQQKPGQPPKLLIYYASYRESGVPDRFSGSGSGTDFTLTISSLQAEDVAVYYCQHSREFPFTFGQGTKLEIK ?
not fulfilled

In plain terms: is recorded ELISA data at least 0.8 for CD81K04 HC JA_GG-14-hVH_1_3 / LC CD81K04 (antibody, V domains shown, human constant region) VH: QVQLVQSGAEVKKPGASVKVSCKASGYTFSSSWMNWVRQAPGQGLEWMGRIYSGDGDAIYNGKFKGRATITADTSASTAYMELSSLRSEDTAVYYCAREGKTGDLLLRSWGQGTLVTVSS VL: DIVLTQSPASLSVSLGQRATISCRASKSVSTSIYSYMHWYQQKPGQPPKLLIKYASYLESGVPARFSGSGSGTDFTLNIHPVEEEDAATYYCEHSREFPFTFGTGTKLEIK ?
fulfilled

In plain terms: is recorded ELISA data at least 0.8 for CD81K04 HC JA_GG-15-hVH_1_3 / LC GG-04-hVK_4_1 (antibody, V domains shown, human constant region) VH: QVQLVQSGAEVKKPGASVKVSCKASGYTFSSSWMNWVRQAPGQRLEWMGRIYSGDGDAIYNGKFKGRVTITADTSASTAYMELSSLRSEDTAVYYCAREGKTGDLLLRSWGQGTLVTVSS VL: DIVMTQSPDSLAVSLGERATINCKSSKSVSTSIYSYLAWYQQKPGQPPKLLIYYASTRESGVPDRFSGSGSGTDFTLTISSLQAEDVAVYYCQHSREFPYTFGQGTKLEIK ?
not fulfilled

// data source = patent US20200377590A1
